# EXPERIMENTAL_SYSTEM: alpha-glucosidase (Saccharomyces cerevisiae)
# PROTOCOL_DESCRIPTION: Inhibition of alpha-glucosidase (Saccharomyces cerevisiae) using p-nitrophenyl glucopyranoside as substrate preincubated for 10 mins followed by substrate addition measured after 30 mins by plate reader analysis
EXPERIMENTAL_READOUT: IC50 (µM)
All answers are understood in µM, so give the number only.

See these solved cases before continuing.
CHEMICAL_SMILES: O=C(N/N=C/c1ccc(O)c(O)c1)c1ccc(-c2nnc(-c3ccc4ncccc4c3)o2)cc1
EXPERIMENTAL_SYSTEM: alpha-glucosidase (Saccharomyces cerevisiae)
UNIT_NAME: µM
IC50: 2.6

CHEMICAL_SMILES: COc1ccc(/C=N/NC(=O)c2ccc(-c3nnc(-c4ccc5ncccc5c4)o3)cc2)cc1O
EXPERIMENTAL_SYSTEM: alpha-glucosidase (Saccharomyces cerevisiae)
UNIT_NAME: µM
IC50: 21.2

CHEMICAL_SMILES: Cc1cccc(/C=N/NC(=O)c2ccc(-c3nnc(-c4ccc5ncccc5c4)o3)cc2)c1
EXPERIMENTAL_SYSTEM: alpha-glucosidase (Saccharomyces cerevisiae)
UNIT_NAME: µM
IC50: 100

CHEMICAL_SMILES: O=C(N/N=C/c1ccc(O)cc1O)c1ccc(-c2nnc(-c3ccc4ncccc4c3)o2)cc1
EXPERIMENTAL_SYSTEM: alpha-glucosidase (Saccharomyces cerevisiae)
UNIT_NAME: µM
IC50: 8.45

CHEMICAL_SMILES: COc1ccc(O)c(/C=N/NC(=O)c2ccc(-c3nnc(-c4ccc5ncccc5c4)o3)cc2)c1
EXPERIMENTAL_SYSTEM: alpha-glucosidase (Saccharomyces cerevisiae)
UNIT_NAME: µM
IC50: 6.2

Q: Field request: IC50 | item: O=C(N/N=C/c1cccc(Cl)c1)c1ccc(-c2nnc(-c3ccc4ncccc4c3)o2)cc1
Ans: 30.2

Q: Field request: IC50 | item: Cc1ccc(/C=N/NC(=O)c2ccc(-c3nnc(-c4ccc5ncccc5c4)o3)cc2)cc1
Ans: 102

Q: Field request: IC50 | item: O=C(N/N=C/c1cc(O)cc(O)c1)c1ccc(-c2nnc(-c3ccc4ncccc4c3)o2)cc1
Ans: 37.1

###

# EXPERIMENTAL_SYSTEM: alpha-glucosidase (Saccharomyces cerevisiae)
# PROTOCOL_DESCRIPTION: Inhibition of alpha-glucosidase (Saccharomyces cerevisiae) using p-nitrophenyl glucopyranoside as substrate preincubated for 10 mins followed by substrate addition measured after 30 mins by plate reader analysis
Below, each entry is listed alongside its reported IC50.
All answers are understood in µM, so give the number only.

CHEMICAL_SMILES: O=C(N/N=C/c1cccc(O)c1)c1ccc(-c2nnc(-c3ccc4ncccc4c3)o2)cc1
IC50 (µM): 39.2
--
CHEMICAL_SMILES: O=C(N/N=C/c1ccc(O)cc1)c1ccc(-c2nnc(-c3ccc4ncccc4c3)o2)cc1
IC50 (µM): 27.2
--
CHEMICAL_SMILES: O=C(N/N=C/c1ccc(Cl)cc1)c1ccc(-c2nnc(-c3ccc4ncccc4c3)o2)cc1
IC50 (µM): 3.9
--
CHEMICAL_SMILES: O=C(N/N=C/c1cc(O)c(O)cc1O)c1ccc(-c2nnc(-c3ccc4ncccc4c3)o2)cc1
IC50 (µM): 2.6

Q: Field request: IC50 | item: O=C(N/N=C/c1c(O)cc(O)cc1O)c1ccc(-c2nnc(-c3ccc4ncccc4c3)o2)cc1
Ans: 8.12

###

# EXPERIMENTAL_SYSTEM: alpha-glucosidase (Saccharomyces cerevisiae)
# PROTOCOL_DESCRIPTION: Inhibition of alpha-glucosidase (Saccharomyces cerevisiae) using p-nitrophenyl glucopyranoside as substrate preincubated for 10 mins followed by substrate addition measured after 30 mins by plate reader analysis
EXPERIMENTAL_READOUT: pIC50
Entry type: numeric. Quantity: pIC50, the -log10 of concentration in molar units.

See these solved cases before continuing.
CHEMICAL_SMILES: O=C(N/N=C/c1ccccc1Cl)c1ccc(-c2nnc(-c3ccc4ncccc4c3)o2)cc1
EXPERIMENTAL_READOUT: pIC50
NUMERIC_VALUE: 5.38

CHEMICAL_SMILES: O=C(N/N=C/c1ccccc1[N+](=O)[O-])c1ccc(-c2nnc(-c3ccc4ncccc4c3)o2)cc1
EXPERIMENTAL_READOUT: pIC50
NUMERIC_VALUE: 4.82

CHEMICAL_SMILES: O=C(N/N=C/c1cccc(O)c1O)c1ccc(-c2nnc(-c3ccc4ncccc4c3)o2)cc1
EXPERIMENTAL_READOUT: pIC50
NUMERIC_VALUE: 5.17

CHEMICAL_SMILES: Cc1ccccc1/C=N/NC(=O)c1ccc(-c2nnc(-c3ccc4ncccc4c3)o2)cc1
EXPERIMENTAL_READOUT: pIC50
NUMERIC_VALUE: 4.10

CHEMICAL_SMILES: O=C(N/N=C/c1ccccc1O)c1ccc(-c2nnc(-c3ccc4ncccc4c3)o2)cc1
EXPERIMENTAL_READOUT: pIC50
NUMERIC_VALUE: 5.54

CHEMICAL_SMILES: O=C(N/N=C/c1cccc([N+](=O)[O-])c1)c1ccc(-c2nnc(-c3ccc4ncccc4c3)o2)cc1
EXPERIMENTAL_READOUT: pIC50
NUMERIC_VALUE: 4.44

CHEMICAL_SMILES: O=C(N/N=C/c1cc(O)ccc1O)c1ccc(-c2nnc(-c3ccc4ncccc4c3)o2)cc1
EXPERIMENTAL_READOUT: pIC50
NUMERIC_VALUE: 5.07

CHEMICAL_SMILES: O=C(N/N=C/c1ccc([N+](=O)[O-])cc1)c1ccc(-c2nnc(-c3ccc4ncccc4c3)o2)cc1
EXPERIMENTAL_READOUT: pIC50
NUMERIC_VALUE: 4.20

Q: Field request: pIC50 | item: O=C(N/N=C/c1ccccn1)c1ccc(-c2nnc(-c3ccc4ncccc4c3)o2)cc1
Ans: 4.39

Q: Field request: pIC50 | item: COc1ccc(/C=N/NC(=O)c2ccc(-c3nnc(-c4ccc5ncccc5c4)o3)cc2)c(O)c1
Ans: 5.04

Origin of values: ChEMBL document CHEMBL3751662
